- system.name: Receptor tyrosine-protein kinase erbB-2 (Homo sapiens)
- measurement.description: Inhibition of human recombinant intracellular domain of erbB2
- Type: cell-based
pIC50: −log10 of the molar value.

{"columns": ["compound", "system.name", "pIC50"],
 "data": [
  ["COCC(=O)NC/C=C/c1ccc2ncnc(Nc3ccc(Oc4ccc(C)nc4)c(C)c3)c2c1 [CP-724714]", "Receptor tyrosine-protein kinase erbB-2 (Homo sapiens)", 8.00]
]}

* * *

- system.name: Receptor tyrosine-protein kinase erbB-2 (Homo sapiens, UniProt P04626)
- Sequence (P04626 whole entry, the tested form may be a part): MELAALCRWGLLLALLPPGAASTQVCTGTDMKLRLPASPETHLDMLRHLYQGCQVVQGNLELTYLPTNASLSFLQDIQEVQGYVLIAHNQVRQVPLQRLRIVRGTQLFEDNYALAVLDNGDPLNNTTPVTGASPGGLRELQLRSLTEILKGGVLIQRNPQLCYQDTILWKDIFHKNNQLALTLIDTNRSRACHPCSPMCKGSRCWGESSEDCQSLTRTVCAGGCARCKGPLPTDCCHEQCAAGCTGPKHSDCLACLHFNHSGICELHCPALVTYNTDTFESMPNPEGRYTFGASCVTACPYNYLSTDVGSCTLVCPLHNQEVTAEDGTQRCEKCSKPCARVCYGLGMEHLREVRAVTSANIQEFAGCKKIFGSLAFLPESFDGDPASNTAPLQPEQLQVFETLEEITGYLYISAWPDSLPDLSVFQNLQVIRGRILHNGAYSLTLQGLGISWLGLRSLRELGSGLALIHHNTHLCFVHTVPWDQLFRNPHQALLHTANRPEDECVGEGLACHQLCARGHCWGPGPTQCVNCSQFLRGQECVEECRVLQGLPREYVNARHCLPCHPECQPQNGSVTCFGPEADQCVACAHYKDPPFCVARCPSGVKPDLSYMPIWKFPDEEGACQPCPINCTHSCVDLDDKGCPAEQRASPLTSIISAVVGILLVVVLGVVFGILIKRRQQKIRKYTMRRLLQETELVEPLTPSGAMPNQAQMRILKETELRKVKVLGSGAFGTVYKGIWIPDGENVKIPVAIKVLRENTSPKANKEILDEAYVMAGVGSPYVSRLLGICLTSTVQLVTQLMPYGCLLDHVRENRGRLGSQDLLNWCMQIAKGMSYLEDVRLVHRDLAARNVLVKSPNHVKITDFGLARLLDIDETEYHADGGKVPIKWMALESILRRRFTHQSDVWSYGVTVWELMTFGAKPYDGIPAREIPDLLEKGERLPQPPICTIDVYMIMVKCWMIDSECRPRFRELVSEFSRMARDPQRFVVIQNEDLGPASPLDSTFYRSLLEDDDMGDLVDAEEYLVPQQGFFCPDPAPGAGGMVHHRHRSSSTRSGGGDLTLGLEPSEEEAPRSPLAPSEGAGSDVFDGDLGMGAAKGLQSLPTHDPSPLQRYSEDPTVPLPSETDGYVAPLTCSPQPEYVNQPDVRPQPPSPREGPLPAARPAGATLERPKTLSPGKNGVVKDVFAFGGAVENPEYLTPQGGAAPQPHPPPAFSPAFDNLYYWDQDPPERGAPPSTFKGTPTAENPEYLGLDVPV
- measurement.description: Inhibition of human erbB2 intracellular domain transfected in mouse NIH3T3 cells assessed as potency reduction in autophosphorylation of the chimera erbB2 incubated for 2 hrs in the presence of EGF stimulation by westernblot analysis
- Format: cell-based

{"columns": ["smiles.input", "IC50 / nM"],
 "data": [
  ["COCC(=O)NC/C=C/c1ccc2ncnc(Nc3ccc(Oc4ccc(C)nc4)c(C)c3)c2c1", 32]
]}

* * *

- measurement.description: Antiproliferative activity against human SUM190PT cells assessed as inhibition of cell growth
- Type: functional, cell-based
pIC50: −log10 of the molar value.

{"columns": ["smiles.input", "pIC50"],
 "data": [
  ["COCC(=O)NC/C=C/c1ccc2ncnc(Nc3ccc(Oc4ccc(C)nc4)c(C)c3)c2c1", 6.15]
]}

* * *

- Tested on: MDA-MB-453
- measurement.description: Antiproliferative activity against human MDA-MB-453 cells assessed as inhibition of cell growth
- Type: functional, cell-based
pIC50: −log10 of the molar value.
measured.property: pIC50

{"columns": ["molecule", "system.name", "measured.property", "value"],
 "data": [
  ["COCC(=O)NC/C=C/c1ccc2ncnc(Nc3ccc(Oc4ccc(C)nc4)c(C)c3)c2c1 [CP-724714]", "MDA-MB-453", "pIC50", 5.60]
]}

* * *

- Tested on: SK-BR-3
- measurement.description: Antiproliferative activity against human SK-BR-3 cells assessed as inhibition of cell growth
- Assay type: functional, cell-based
pIC50: −log10 of the molar value.
measured.property: pIC50

{"columns": ["smiles.input", "system.name", "measured.property", "value"],
 "data": [
  ["COCC(=O)NC/C=C/c1ccc2ncnc(Nc3ccc(Oc4ccc(C)nc4)c(C)c3)c2c1", "SK-BR-3", "pIC50", 6.02]
]}

Hey, just so you know, these numbers are from ChEMBL document CHEMBL5661975.
